System: HOP-92 NSCLC
experiment: NCI-60 one-dose screen, 48 h
condition-description: 10 µM unless noted
Protocol: Growth inhibition of the HOP-92 human Non-Small Cell Lung tumor cell line is measured as a screen for anti-cancer activity. Cells are grown in 96 well plates and exposed to the test compound for 48 hours. Compounds are tested at a single concentration, which is 10^-5 M for most compounds. The reported endpoint is percent growth (GI% or GIPRCNT), where numbers from 0 - 100% represent growth inhibition, and numbers from -100% - 0 represent cell death. […]
The panel holds about 83,000 compounds, 20% with a hit somewhere; the sample as a whole holds those more often. Active and inactive are the calls of the source. How the source made its calls: active means growth percent below 10; inactive means the rest.
Your reply should match one of these outcome classes. y (active), n (inactive)

[[record]]
molecule = "CC(=O)NCC(=O)Nc1ccc(-c2nnc3ccccn23)nc1.CC(=O)NCC(=O)Nc1ccc(-c2nnc3ccccn23)nc1.[Pt+2]"
class_name = "n"

[[record]]
molecule = "CCOC(=O)c1c(C)nc2c(c1N)/C(=C/c1ccc(OC)cc1)C(=O)N2Cc1ccc(F)cc1"
class_name = "y"

[[record]]
molecule = "COc1cc(NC(=O)c2cc(O)c(CC=C(C)C)c(O)c2)cc2c1O[C@]1(C)CC[C@@H](O)C(C)(C)[C@H]1C2"
class_name = "y"

[[record]]
molecule = "CCN(CC)S(=O)(=O)c1ccc(O)c(NC(=O)c2[nH]c(C)c(C(C)=O)c2CCc2ccc(Cl)cc2)c1"
class_name = "n"

[[record]]
molecule = "Clc1ccc(-c2cn(-c3ccccc3)c(-c3ccccc3)n2)cc1"
class_name = "n"


Data request: Recorded test outcome, item CCOC(=O)Cc1csc2nc(-c3ccccc3)nn12
Data returned: n

Data request: For this molecule, state the assay outcome: CN1CCN(C(=O)[C@@]2(C)CC[C@]3(C)CC[C@]4(C)C(=CC[C@@H]5[C@@]6(C)C/C(=C/c7ccncc7)C(=O)C(C)(C)[C@@H]6CC[C@]54C)[C@@H]3C2)CC1
Data returned: n

Data request: In this assay, the call recorded for COc1ccc(/C(C)=N/NS(=O)(=O)c2ccc(C)cc2)cc1OC was what?
Data returned: n

Data request: Answer briefly: the call reported for Cc1[nH]c(-c2nc3ccccc3[nH]2)c(C)c1C(=O)NNc1ccc(Cl)cc1 in this assay.
Data returned: n
